tested on: Bacillus subtilis; test: cleaved RNA product abundance (RNA/gDNA barcode ratio) relative to median wild-type variant (ratio to wild type); higher = more accumulation of the downstream cleavage product; conditions: experiment (reporter, strain, medium): exp 4a: truncated aprE reporter, strain BJT201 with 2% xylose (RNase J1 expressed); cleavage site: cggR-gapA (positions -7 to +36 mutated)
// label = YES if cleaved RNA product abundance is not less than 0.2, otherwise NO

Solved cases below.
INSERT INTO measurements (monomer_sequence, tested_target, classification) VALUES
  ('ACAGACGAAGGAGCCGCAAATAAATAATTAAGGGATGAATAATCCCTCAATATAAATATCTCTCACTTATTTAAA', 'Bacillus subtilis', 'YES'),
  ('ACAGACGAAGGAGCCGCAAAGAAGTTATTAAGGGGTAAATAATCCCTCAATATAAATATCTCTCACTTATTTAAA', 'Bacillus subtilis', 'YES'),
  ('ACAGACGAAGGAGCCGCAATGAAGTTATTAAGGGATGAAAAATCCCTCAATATAAATATCTCTCACTTATTTAAA', 'Bacillus subtilis', 'YES'),
  ('ACAGACGAAGGAGCCGCAAAGAAGTTATTAAGGGATGAATAAGCCCTCAAGATAAATATCTCTCACTTATTTAAA', 'Bacillus subtilis', 'NO'),
  ('ACAGACGAAGGAGCCGCAAAGAAGTTATTAAGGGATGAATAATCCCTCAAAATAAACATCTCTCACTTATTTAAA', 'Bacillus subtilis', 'YES'),
  ('ACAGACGAAGGAGCCGCAAAGAAGTTATTAAGGGATGAATAATCCCTCCATATAAATATCTCTCACTTATTTAAA', 'Bacillus subtilis', 'YES'),
  ('ACAGACGAAGGAGCCGCAAAGAAGTTATTAAGGGATGAATAATACATCAATATAAATATCTCTCACTTATTTAAA', 'Bacillus subtilis', 'NO'),
  ('ACAGACGAAGGAGCCGCAAAGAAGTGATTAACGGATGAATAATCCCTCAATATAAATATCTCTCACTTATTTAAA', 'Bacillus subtilis', 'NO');

// query # check: cleaved RNA product abundance of `ACAGACGAAGGAGCCGCAAAGAAGATATTAATGGATGAATAATCCCTCAATATAAATATCTCTCACTTATTTAAA` is greater than or equal to 0.2
// result NO

// query # check: cleaved RNA product abundance of `ACAGACGAAGGAGCCGCAAAGACGTTATTAAGGGATGAATAATCCCTCAACATAAATATCTCTCACTTATTTAAA` is greater than or equal to 0.2
// result YES

---

test system: Bacillus subtilis; experiment: cleaved RNA product abundance (RNA/gDNA barcode ratio) relative to median wild-type variant (ratio to wild type); higher = more accumulation of the downstream cleavage product; conditions: experiment (reporter, strain, medium): exp 8a: truncated aprE reporter, strain BJT201 with 2% xylose (RNase J1 expressed); cleavage site: glnRA (positions -5 to +31 mutated)
// label = Met if cleaved RNA product abundance is not less than 0.4, otherwise Not met

INSERT INTO assay_data (monomer_sequence, tested_target, classification) VALUES
  ('CGACATGTCCCGCTTCTTTCATTAATCCGTTAGAAACTGTTTTGCTATATACATTTATCTTTTAAGAGGAGGAAT', 'Bacillus subtilis', 'Not met'),
  ('CGACATGTCCCGCTTCTTTCATTAATCCGTTAGCAACTGTTTTGCTATATACAATTATCTTTTAAGAGGAGGAAT', 'Bacillus subtilis', 'Met'),
  ('CGACATGTCCCGCTTCTTTCATTATTCCGTTAGCAACTGTTTTGCTATATACATTTACCGTTTAAGAGGAGGAAT', 'Bacillus subtilis', 'Met'),
  ('CGACATGTCCCGCTTCTTTCATTAATCCGTTAACAACTGTTTTGCTATATACATTTACATTTTAAGAGGAGGAAT', 'Bacillus subtilis', 'Not met'),
  ('CGACATGTCCCGCTTCTTTCATTAATCCGTTAGCAACTGTTTTGCTATATAGATTTACCCTTTAAGAGGAGGAAT', 'Bacillus subtilis', 'Met');

// query # check: cleaved RNA product abundance of `CGACATGTCCCGCTTCTTTCATTAATCAGTTAGCAACTGTTTTTCTATATACATTTACCTTTTAAGAGGAGGAAT` is greater than or equal to 0.4
// result Met

// query # check: cleaved RNA product abundance of `CGACATGTCCCGCTTCTTTCATTAATCCGTTATCAACTGTTTTGCGATATACATTTACCTTTTAAGAGGAGGAAT` is greater than or equal to 0.4
// result Not met

// query # check: cleaved RNA product abundance of `CGACATGTCCCGCTTCTTTCATTAATCCATTAGCAACTGTTTTACTATATACATTTACCTTTTAAGAGGAGGAAT` is greater than or equal to 0.4
// result Met

// query # check: cleaved RNA product abundance of `CGACATGTCCCGCTTCTTTCATTAATCCGTTAGCAACTGTATTGCTATTTACATTTACCTTTTAAGAGGAGGAAT` is greater than or equal to 0.4
// result Not met

// query # check: cleaved RNA product abundance of `CGACATGTCCCGCTTCTTTCATTAATACGTTATCAACTGTTTTGCTATATACATTTACCTTTTAAGAGGAGGAAT` is greater than or equal to 0.4
// result Not met

// query # check: cleaved RNA product abundance of `CGACATGTCCCGCTTCTTTCATTAATCCGTTAGCAACTGTTTTGCTATATACATTAACTTTTTAAGAGGAGGAAT` is greater than or equal to 0.4
// result Met

// query # check: cleaved RNA product abundance of `CGACATGTCCCGCTTCTTTCATTAATCCGTTAGCAACTGTTTTACTATATACGTTTACCTTTTAAGAGGAGGAAT` is greater than or equal to 0.4
// result Met

// query # check: cleaved RNA product abundance of `CGACATGTCCCGCTTCTTTCATTAATCCGTTAGCCACTGTTTTGTTATATACATTTACCTTTTAAGAGGAGGAAT` is greater than or equal to 0.4
// result Not met
